Measured values drawn from patent US20110135636A1 for this set.

biological target: T1, recombinant human EGFR extracellular domain with 6xHis (human, UniProt P00533 25-645); experiment: SPR competition, competitor 1347
T1 construct: In-house produced; also called 6xHis EGFR ECD; soluble human EGFR ECD; not shown: 6xHis tag
# % inhibition listing for each entry below
Give the number; % is assumed, so skip it.

antibody 1208 (antibody, human IgG1, kappa, V domains shown, Chimeric IgG1 kappa; also called clone 1208) VH: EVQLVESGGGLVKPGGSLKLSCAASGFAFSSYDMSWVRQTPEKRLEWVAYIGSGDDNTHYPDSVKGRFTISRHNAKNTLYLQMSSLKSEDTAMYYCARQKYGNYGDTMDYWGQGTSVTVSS VL: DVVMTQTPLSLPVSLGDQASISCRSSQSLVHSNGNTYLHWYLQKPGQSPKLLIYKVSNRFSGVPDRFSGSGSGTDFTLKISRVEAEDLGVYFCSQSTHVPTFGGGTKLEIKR	4
antibody 1024 (antibody, human IgG1, kappa, V domains shown, Chimeric IgG1 kappa) VH: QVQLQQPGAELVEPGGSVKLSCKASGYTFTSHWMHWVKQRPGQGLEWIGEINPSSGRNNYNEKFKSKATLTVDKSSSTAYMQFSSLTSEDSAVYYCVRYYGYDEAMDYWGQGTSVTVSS VL: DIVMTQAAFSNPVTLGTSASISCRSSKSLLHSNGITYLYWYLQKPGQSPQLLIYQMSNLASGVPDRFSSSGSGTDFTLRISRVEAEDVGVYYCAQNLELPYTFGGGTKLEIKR	2

Please turn your attention to the following entry.
Give the measured % inhibition of antibody 1308 (antibody, human IgG1, kappa, V domains shown, Chimeric IgG1 kappa) VH: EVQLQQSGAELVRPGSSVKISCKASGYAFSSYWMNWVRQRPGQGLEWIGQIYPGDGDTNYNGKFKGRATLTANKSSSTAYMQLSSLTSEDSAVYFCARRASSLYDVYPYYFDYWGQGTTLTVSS VL: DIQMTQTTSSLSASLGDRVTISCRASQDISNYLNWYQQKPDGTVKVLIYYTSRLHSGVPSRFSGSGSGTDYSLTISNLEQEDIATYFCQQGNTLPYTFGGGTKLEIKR . 65
